meta.source: the supplement of paper PMC10567573

B1: C8orf76 (parent)
chain: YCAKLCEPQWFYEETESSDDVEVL

variants of: B1; assay: protein stability index of a GFP-peptide fusion (GPS, HEK-293T) (PSI 1-6); higher = more stable; conditions: c terminus: a fixed tail appended;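 note: lentivirally expressed fusions sorted by FACS into six bins by GFP to DsRed ratio, PSI derived from sequencing read proportions per bin multiplied by bin number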
endpoint label: protein stability index
Give your answer as a number; write no unit.

Reference set (3 entries):
C6V: 3.3
Q9S: 2.4
W10D: 4.5

Quick check: protein stability index of `D20Y` ?
1.76

For `F11R` then?
2.89

`S17Y` ?
2.24

Please give the result for `S18C` too.
2.13

Now consider `V23Q` .
2.8

Same again, this time with `Q9D`
3.86

Another variant to look at: `D19L`
1.76

Do the same for `V23W` please
1.98
